- TESTED_ON: Yer064c (UniProt P40041)
- Sequence: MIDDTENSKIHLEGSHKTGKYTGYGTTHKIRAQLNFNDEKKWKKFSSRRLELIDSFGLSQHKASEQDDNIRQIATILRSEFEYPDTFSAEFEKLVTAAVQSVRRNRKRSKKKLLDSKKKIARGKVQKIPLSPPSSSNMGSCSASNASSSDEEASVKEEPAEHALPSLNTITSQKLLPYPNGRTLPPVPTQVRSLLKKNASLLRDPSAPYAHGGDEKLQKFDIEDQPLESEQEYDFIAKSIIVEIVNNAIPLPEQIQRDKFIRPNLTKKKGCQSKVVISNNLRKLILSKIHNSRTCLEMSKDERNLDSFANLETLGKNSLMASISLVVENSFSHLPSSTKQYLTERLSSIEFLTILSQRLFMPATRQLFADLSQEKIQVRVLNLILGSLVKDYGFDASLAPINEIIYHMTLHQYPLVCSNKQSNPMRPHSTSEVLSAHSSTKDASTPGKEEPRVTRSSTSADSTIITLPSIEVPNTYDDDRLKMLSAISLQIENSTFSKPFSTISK
- ASSAY_OVERVIEW: PBM E-score (8-mer binding enrichment) (E-score (-0.5 to 0.5)); higher = stronger / more preferred TF binding
- CONDITION: protein concentration: 200 nM; construct: GST-full length
Whole data set: some 33,000 sequences, median “E-score (-0.5 to 0.5)” near -0.036, cut for the highest 2% near 0.37. Many of the other results were omitted from the sample, so the highest values are more common in it than they were.
MEASURE_NAME: PBM E-score
Form: value (number only, do not type unit).

Guide cases for PBM E-score, answers given:
| SEQUENCE_INPUT | TESTED_ON | MEASURE_NAME | MEAS_VALUE |
| --- | --- | --- | --- |
| GATCACGA | Yer064c (UniProt P40041) | PBM E-score | 0.0675 |
| ACGGCCTG | Yer064c (UniProt P40041) | PBM E-score | -0.12 |
| AGTCACGC | Yer064c (UniProt P40041) | PBM E-score | 0.469 |
| CACTATAA | Yer064c (UniProt P40041) | PBM E-score | -0.0109 |
| ATTGGTCA | Yer064c (UniProt P40041) | PBM E-score | 0.0959 |
| CGCTTCCA | Yer064c (UniProt P40041) | PBM E-score | -0.24 |
| AACTCTGC | Yer064c (UniProt P40041) | PBM E-score | 0.0728 |
| GCGAAAAC | Yer064c (UniProt P40041) | PBM E-score | -0.131 |

Give its PBM E-score value. Item: GAATGCCA -0.127

Give its PBM E-score value. Item: AAAGTCAA 0.319

Give its PBM E-score value. Item: CGCCGAAA -0.059

Give its PBM E-score value. Item: AACGAGTT 0.0273

Give its PBM E-score value. Item: ACCTTGAA 0.0165

Give its PBM E-score value. Item: AAAGTCCT 0.0605

Give its PBM E-score value. Item: GACTCTTA 0.428

Give its PBM E-score value. Item: GACGACTA 0.415

Give its PBM E-score value. Item: GAAGTCAC 0.433

Give its PBM E-score value. Item: AGCCCAAA 0.141

Give its PBM E-score value. Item: TAATGGCA -0.172

Give its PBM E-score value. Item: CGTCACGC -0.184

Give its PBM E-score value. Item: AGGTCACT 0.0701

Give its PBM E-score value. Item: CCGGGCCC -0.315

Give its PBM E-score value. Item: TGTCCAAA -0.0925

Give its PBM E-score value. Item: ACACGACT 0.408

Give its PBM E-score value. Item: CCGAGGAC -0.0294
